Field: fold (KD vs average of 4 runs of L1A2). Provide a value for each of the binders that follow.
Target: Clade C DU172.17 gp120 protein (HIV-1 Clade C, DU172.17)
Experiment: BLI (Octet), IgG on anti-hIgG Fc sensor, gp120 analyte, 1:1 fit
Report only the number, with the unit fold understood.

Task item: Answer with reported fold (KD vs average of 4 runs of L1A2) of Germ17 (antibody, V domains shown) VH: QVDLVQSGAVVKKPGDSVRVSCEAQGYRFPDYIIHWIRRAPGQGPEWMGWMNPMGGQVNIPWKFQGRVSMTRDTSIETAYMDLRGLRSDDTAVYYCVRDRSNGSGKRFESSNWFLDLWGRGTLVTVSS VL: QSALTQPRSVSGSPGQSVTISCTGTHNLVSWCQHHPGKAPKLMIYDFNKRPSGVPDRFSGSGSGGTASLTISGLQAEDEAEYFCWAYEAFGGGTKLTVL
Reply: 0.69

Task item: Assign fold (KD vs average of 4 runs of L1A2) to the following record: CysCA (antibody, V domains shown) VH: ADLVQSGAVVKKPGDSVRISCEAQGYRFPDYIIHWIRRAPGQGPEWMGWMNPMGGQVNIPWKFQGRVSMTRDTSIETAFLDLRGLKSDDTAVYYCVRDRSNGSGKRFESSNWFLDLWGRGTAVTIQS VL: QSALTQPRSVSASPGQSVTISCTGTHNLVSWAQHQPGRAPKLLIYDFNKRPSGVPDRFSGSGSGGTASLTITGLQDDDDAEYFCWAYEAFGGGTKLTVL
Reply: 0.77

Task item: Determine from records and report fold (KD vs average of 4 runs of L1A2) for Germ18 (antibody, V domains shown) VH: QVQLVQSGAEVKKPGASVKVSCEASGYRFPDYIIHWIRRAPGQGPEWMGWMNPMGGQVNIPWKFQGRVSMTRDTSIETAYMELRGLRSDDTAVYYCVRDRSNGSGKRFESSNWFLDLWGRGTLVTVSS VL: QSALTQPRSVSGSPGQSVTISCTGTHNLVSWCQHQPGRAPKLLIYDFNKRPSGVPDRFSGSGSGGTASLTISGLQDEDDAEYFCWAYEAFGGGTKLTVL
Reply: 0.84
